Species on record: Oryctolagus cuniculus
Assay: Pseudo first-order rate constant (K) for disappearance of compound from rabbit 10% brain homogenate
Format: ADME
Use TRUE when the recorded K is no lower than 0.2 min⁻¹; use FALSE when it is lower.

molecule="CN1C=CCC(C(=O)OCCOC(=O)C2N3C(=O)C(NC(=O)Cc4ccccc4)C3SC2(C)C)=C1 (stereo unspecified)" assigned_category=FALSE
molecule="CN1C=CCC(C(=O)NCCOC(=O)C2N3C(=O)C(NC(=O)Cc4ccccc4)C3SC2(C)C)=C1 (stereo unspecified)" assigned_category=FALSE
molecule="C[n+]1cccc(C(=O)OCOC(=O)C2N3C(=O)C(NC(=O)Cc4ccccc4)C3SC2(C)C)c1.[I-] (stereo unspecified)" assigned_category=TRUE
molecule="CN1C=CCC(C(=O)OCOC(=O)C2N3C(=O)C(NC(=O)Cc4ccccc4)C3SC2(C)C)=C1 (stereo unspecified)" assigned_category=FALSE
molecule="C[n+]1cccc(C(=O)NCCOC(=O)C2N3C(=O)C(NC(=O)Cc4ccccc4)C3SC2(C)C)c1.[I-] (stereo unspecified)" assigned_category=FALSE
molecule="C[n+]1cccc(C(=O)OCCOC(=O)C2N3C(=O)C(NC(=O)Cc4ccccc4)C3SC2(C)C)c1.[I-] (stereo unspecified)" assigned_category=FALSE

---

Assay: Pseudo first-order rate constant (K) for disappearance of compound from rat whole blood
Type: ADME, tissue-based
Measured Quantity: K (min⁻¹)

compound="CN1C=CCC(C(=O)NCCOC(=O)C2N3C(=O)C(NC(=O)Cc4ccccc4)C3SC2(C)C)=C1 (stereo not given)" scale_unit=min⁻¹ result_value=2.712
compound="C[n+]1cccc(C(=O)NCCOC(=O)C2N3C(=O)C(NC(=O)Cc4ccccc4)C3SC2(C)C)c1.[I-] (stereo not given)" scale_unit=min⁻¹ result_value=0.362
compound="C[n+]1cccc(C(=O)OCCOC(=O)C2N3C(=O)C(NC(=O)Cc4ccccc4)C3SC2(C)C)c1.[I-] (stereo not given)" scale_unit=min⁻¹ result_value=0.435
compound="C[n+]1cc(C(=O)NCCOC(=O)C2N3C(=O)C(NC(=O)Cc4ccccc4)C3SC2(C)C)c2ccccc2c1.[I-] (stereo not given)" scale_unit=min⁻¹ result_value=0.115
compound="CN1C=c2ccccc2=C(C(=O)NCCOC(=O)C2N3C(=O)C(NC(=O)Cc4ccccc4)C3SC2(C)C)C1 (stereo not given)" scale_unit=min⁻¹ result_value=1.083

---

Assay: Half-life for disappearance of compound from human whole blood
Type: ADME, organism-based
Use Fulfilled when the recorded half-life is no lower than 9 min; use Not fulfilled when it is lower.

compound="C[n+]1cccc(C(=O)OCCOC(=O)C2N3C(=O)C(NC(=O)Cc4ccccc4)C3SC2(C)C)c1.[I-] (stereo not given)" assigned_category="Not fulfilled"
compound="CN1C=CCC(C(=O)NCCOC(=O)C2N3C(=O)C(NC(=O)Cc4ccccc4)C3SC2(C)C)=C1 (stereo not given)" assigned_category=Fulfilled
compound="CN1C=CCC(C(=O)OCCOC(=O)C2N3C(=O)C(NC(=O)Cc4ccccc4)C3SC2(C)C)=C1 (stereo not given)" assigned_category=Fulfilled
compound="CN1C=CCC(C(=O)OCOC(=O)C2N3C(=O)C(NC(=O)Cc4ccccc4)C3SC2(C)C)=C1 (stereo not given)" assigned_category=Fulfilled

---

Below is a list of entries, each paired with its recorded K value.
Species on record: Oryctolagus cuniculus
Test: Pseudo first-order rate constant (K) for disappearance of compound from rabbit whole blood
Type: ADME, organism-based
Measured Quantity: K (min⁻¹)

molecule="CN1C=CCC(C(=O)OCCOC(=O)C2N3C(=O)C(NC(=O)Cc4ccccc4)C3SC2(C)C)=C1 (stereo not given)" result_value=0.903
molecule="CN1C=CCC(C(=O)NCCOC(=O)C2N3C(=O)C(NC(=O)Cc4ccccc4)C3SC2(C)C)=C1 (stereo not given)" result_value=0.553
molecule="CN1C=CCC(C(=O)OCOC(=O)C2N3C(=O)C(NC(=O)Cc4ccccc4)C3SC2(C)C)=C1 (stereo not given)" result_value=0.949
molecule="C[n+]1cccc(C(=O)OCCOC(=O)C2N3C(=O)C(NC(=O)Cc4ccccc4)C3SC2(C)C)c1.[I-] (stereo not given)" result_value=0.33
molecule="C[n+]1cccc(C(=O)NCCOC(=O)C2N3C(=O)C(NC(=O)Cc4ccccc4)C3SC2(C)C)c1.[I-] (stereo not given)" result_value=0.23
